Reference source: patent US20240293367A1

- method.notes: Phase I/IIa clinical PK of oral psilocin-d10, plasma, noncompartmental analysis (Cohorts 1-6)
- Format: in vivo, human
- test.settings: human, plasma, po, 1 mg, 1 mg oral, Cohort 1 MDD, Day 1 and Day 22 pooled; read-out: Vz/F Mean (SD)
measured.metric: Vd/F (L)
Answers are plain numbers, in L.

Req: Let me know recorded Vd/F for [2H]C([2H])([2H])N(C([2H])([2H])[2H])C([2H])([2H])C([2H])([2H])c1c[nH]c2cccc(O)c12 [psilocin-d10] , thanks.
Resp: 608

---

- method.notes: Phase I/IIa clinical PK of oral psilocin-d10, plasma, noncompartmental analysis (Cohorts 1-6)
- Format: in vivo, human
- test.settings: human, plasma, po, 12 mg, 12 mg oral, Cohort 5 MDD, Day 1 and Day 22; read-out: AUC0-inf Mean (SD)
measured.metric: AUC(0-inf) (ng·h/mL)
Answers are plain numbers, in ng·h/mL.

Req: Let me know recorded AUC(0-inf) for [2H]C([2H])([2H])N(C([2H])([2H])[2H])C([2H])([2H])C([2H])([2H])c1c[nH]c2cccc(O)c12 [psilocin-d10] , thanks.
Resp: 144
